STUDY TARGET: T1, biotinylated GITR (human, UniProt Q9Y5U5 26-161, limits assumed, biotinylated (sites not given))
T1 construct: also called GITR-bio; Biotin-GITR
T1 sequence: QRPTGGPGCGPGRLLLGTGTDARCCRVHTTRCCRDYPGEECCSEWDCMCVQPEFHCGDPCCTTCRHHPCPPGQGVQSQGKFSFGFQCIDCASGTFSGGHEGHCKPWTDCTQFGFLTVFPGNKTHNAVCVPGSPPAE
METHOD: BLI (Octet), biotin-GITR on streptavidin tips, antibody supernatant
Hi there, I'd appreciate the recorded koff for every entry that follows.
Answers are plain numbers, in s⁻¹.

// below: answered binders
[
  {
    "BINDER": "germline variant antibody 6 (H1916A07 / K1916A07) (antibody, V domains shown, IGHG1/IGKC expression vectors; measured from CHO culture supernatant; also called Antibody ID 6) VH: QVQLVQSGAEVKKPGASVKVSCKGSGYTFTEYAMYWVRQAPGQGLEWMGLIRTFSGGVSYNQKFKGRATMTVDTSISTAYMELSRLRSDDTAVYYCAKSGTVRGFAYWGQGTLVTVSS VL: DIVMTQSPDSLAVSLGERATINCKSSQSLLNSGNQKNYLSWYQQKPGQPPKMLIYWASTRESGVPDRFTGSGSGTDFTLTISSLQAEDVAVYHCQNDYSYPYTFGQGTKLEIK",
    "METRIC NAME": "koff",
    "QUANTITATIVE RESULT": 0.000579
  },
  {
    "BINDER": "germline variant antibody 31 (H1916D01 / K1916D01) (antibody, V domains shown, IGHG1/IGKC expression vectors; measured from CHO culture supernatant; also called Antibody ID 31) VH: QVQLVQSGTEVKKPGASVKVSCKGSGYTFTEYAMYWVRQAPGQGLEWMGLIRTFSGGLTYNQKFKDRVTMTVDKSISTAYMELSRLRSDDTAVYYCAKSGTVRGFAYWGQGIPVTVSS VL: DIVMTQSPDSLAVSLGERATINCKSSQSLLNSSNQKNYLTWYQQKPGQPPKLLIYWASTRESGVPDRFTGSGSGTDFTLTISSLQAEDVAVYHCQNDYSYPYTFGQGTKLEIK",
    "METRIC NAME": "koff",
    "QUANTITATIVE RESULT": 0.000211
  }
]

# per-item lookup of koff; items listed below
1. germline variant antibody 38 (H1916D08 / K1916D08) (antibody, V domains shown, IGHG1/IGKC expression vectors; measured from CHO culture supernatant; also called Antibody ID 38) VH: QVQLVQSGTEVKKPGASVKVSCKGSGYTFTGYAMYWVRQAPGQGLEWIGVIKTYSGGVTYNQKFRGRVTMTVDKSISTAYMELSRLRSDDTAVYYCAKSGTVRGFAYWGQGTLVTVSS VL: DIVMTQSPDSLAVSLGERATINCKSSQSLLNSGNQKNYLTWYQQKPGQPPKLLIYWASTRESGVPDRFSGSGSGTDFTLTISSLQAEDVAVYYCQNDYSYPYTFGQGTKLEIK
2. germline variant antibody 54 (H1916F09 / K1916F09) (antibody, V domains shown, IGHG1/IGKC expression vectors; measured from CHO culture supernatant; also called Antibody ID 54) VH: QVQLVQSGAEVKKPGASVKVSCKASGYTFTEYAMHWVRQAPGQGLEWMGLIRTYSGGVSYNQKFQGRATMTVDTSISTAYMELSRLRSDDTAVYYCAKSGTVRGFAYWGQGTLVTVSS VL: DIVMTQSPDSLAVSLGERATINCKSSQSLLNSSNQKNYLTWYQQKPGQPPKLLIYWASTRESGVPDRFTGSGSGTDFTLTISSVQAEDVAVYHCQNDYSFPYTFGQGTKLEIK

Ans.
[0.00075, 0.000688]

Qu. Answer with the recorded koff of germline variant antibody 86 (H1917E03 / K1917E03) (antibody, V domains shown, IGHG1/IGKC expression vectors; measured from CHO culture supernatant; also called Antibody ID 86) VH: QVQLVQSGAEVKKPGASVKVSCKGSGYTFTEYAMYWVRQAPGQGMEWMGVIRTYSGGVTYNQKFRDRATMTVDTSISTAYMELSRLRSDDTAVYYCAKSGTVRGFAYWGQGTLVTVSS VL: DIVMTQSPDSLAVSLGERATINCKSSQSLLNSGNQKNYLTWYHQKPGQPPKLLIYWASTRESGVPDRFSGSGSGTDFTLTISSVQAEDVAVYYCQNDYSYPYTFGQGTKLEIK only.
Ans. 0.000432
